folding enthalpy: recorded values
measurement.description: folding enthalpy; higher = less favourable; fluorescence melt of hairpins on a sequencing array, two-state fit
protocol.conditions: sodium 0.088 M
Answer format: numeric, kJ/mol implied, no suffix.

# example entries with known answers
>>> numeric_value("GAGTGTGGAAACACGTTC ((..(((....)))..))")
-51.2
>>> numeric_value("GATCCATTTTTGGATC ((((((....))))))")
-165
>>> numeric_value("GAACCGGAAACGGTTC ((((((....))))))")
-138
>>> numeric_value("GCTGACGCGAAAGCGAGC (((..(((....))))))")
-58.1
>>> numeric_value("GCATTGCGAAAGCACGGC ((..(((....)))..))")
-69.6

With those in mind, consider the next sequence.
Task: Can you look up the measured folding enthalpy of GGGTACACGAAAGTGCCC (((..(((....)))))) for me?
Output: -88.8
